# systemTested: thrombin (Homo sapiens)
# method: Ki determinations thrombin (fluorogenic substrate Tosyl-GPR-AMC)
# conditionParameters: 20 °C; Tosyl-GPR-AMC 20 µM; thrombin concentration of 100 pM; HBS pH 7.4
pKi: −log10 of the molar value.

{"columns": ["compound", "systemTested", "pKi"],
 "data": [
  ["Fc1c(NCCC2CCCCN2)ncc(Cl)c1CCNCc1n[nH]c2ccc(Cl)cc12 (stereo not shown) [example 1]", "thrombin (Homo sapiens)", "> 6.00"]
]}
